Test: Quantitative High-Throughput drug screen in 47 multiple myeloma cell lines against the NCATS MIPE library collection: KMS11_JCRBsus cell viability assay (AID 1919873); further: potency means the concentration at half of the fitted maximal effect; nearly all actives have a fitted effect of over 50% in size
Conditions: KMS11 myeloma viability, CellTiter-Glo ATP luminescence, 48 h; series mostly up to 45.8 µM
Description: PI: Beverly A. Mock Ph.D. Laboratory of Cancer Biology and Genetics, Center for Cancer Research, National Cancer Institute, National Institute of Health, Bethesda, Maryland […] 5; Detector; 425V; Luminescence; Viewlux PerkinElmer. […] 1. […] Briefly, the corresponding myeloma cell lines were screened in 1,536-well plates with 500 cells, 5-uL per well for inhibition of cell viability (assessed by measuring ATP levels with CellTiterGlo). […]
Inconclusive results are not listed. The source made the active and inactive calls. The call rests on the fitted dose curve; in most records, active means well fitted cell-killing curve with a large enough effect; inconclusive means small, poorly fitted or top-dose-only effect, or effect the other way; inactive means no such curve, though single readings can be large or run the other way.
We begin with a simple list: items and their reported Potency.

// below: answered compounds
1. C=CCn1c(=O)c2cnc(Nc3ccc(N4CCN(C)CC4)cc3)nc2n1-c1cccc(C(C)(C)O)n1; 0.264 µM (active)
2. Cc1[nH]nc2ccc(-c3cncc(OC[C@@H](N)Cc4ccccc4)c3)cc12; 1.18 µM (active)
3. CNC(=O)c1c(F)cccc1Nc1nc(Nc2cc3c(cc2OC)CCN3C(=O)CN(C)C)nc2[nH]ccc12; 0.0662 µM (active)

Request: Consider the compound shown here: C=CC(=O)Nc1cc2c(Nc3ccc(F)c(Cl)c3)ncnc2cc1OCCCN1CCOCC1 What is its recorded Potency?
Result: 9.35 µM (active)

Request: Query C[C@@H]1CN(CC(=O)Nc2ccc3c(c2)Cc2cccc(-c4cc(=O)cc(N5CCOCC5)o4)c2S3)C[C@H](C)O1 next
Result: 16.6 µM (active)

Request: Query COC(=O)C[C@](O)(CCCC(C)(C)O)C(=O)O[C@@H]1C(OC)=C[C@]23CCCN2CCc2cc4c(cc2[C@H]13)OCO4 next
Result: 29.6 µM (active)
